Sourced from patent US12673944B2

- Tested on: GM1 production in Jurkat cells
- Run Description: cells
- Format: cell-based
- Measurement Setup: Homo sapiens, Jurkat, 72 h
Exercise: for every item that follows, state its recorded IC50.
Kindly answer with a numeric value in nM, unit omitted.

What value of IC50 has been reported for the following molecule? COc1cc2c(cc1-c1ccsc1)OCC(C)(C)C2NC(=O)O[C@@H]1CN2CCC1CC2 (stereo partly drawn)
4

Note, next up: O=C(NC1CCOc2ccc(-c3ccccc3OC(F)(F)F)cc21)O[C@@H]1CN2CCC1CC2 (stereo partly drawn)
78.9

Here is the next molecule: CCCCc1ccc(-c2cc3c(cc2F)C(NC(=O)O[C@@H]2CN4CCC2CC4)C(C)(C)CO3)cc1 (stereo partly drawn)
0.1

And what about the molecule CN1CCC(NC(=O)O[C@@H]2CN3CCC2CC3)c2ccc(-c3coc4ccccc34)cc21 (stereo partly drawn) ?
58.1

How about this molecule: Cc1cc(C)c(Cl)c(-c2ccc3c(c2)OCC(C)(C)C3NC(=O)O[C@@H]2CN3CCC2CC3)c1 (stereo partly drawn)
9.7

Query O=C(NC1CCOc2cc(-c3cccc4cccnc34)ccc21)O[C@@H]1CN2CCC1CC2 (stereo partly drawn) next
6.03

Now this one: CC1(C)COc2cc(-c3ccc4c(c3)CCCO4)ccc2C1NC(=O)O[C@@H]1CN2CCC1CC2 (stereo partly drawn)
0.5

And then CC1(C)COc2cc(-c3ccc(N4CCOCC4)c(Cl)c3)ccc2C1NC(=O)O[C@@H]1CN2CCC1CC2 (stereo partly drawn) , what is it?
0.25

One more molecule: O=C(NC1CCOc2cc(-c3ccc4c(c3)OCCCO4)ccc21)O[C@@H]1CN2CCC1CC2 (stereo partly drawn)
21.2

----------
Please respond with reported pIC50 for every item in the list.
- System Under Test: glucosylceramide synthase (GCS) (Homo sapiens, UniProt Q16739)
- Construct: The obtained supernatant was used
- Sequence (Q16739 whole entry): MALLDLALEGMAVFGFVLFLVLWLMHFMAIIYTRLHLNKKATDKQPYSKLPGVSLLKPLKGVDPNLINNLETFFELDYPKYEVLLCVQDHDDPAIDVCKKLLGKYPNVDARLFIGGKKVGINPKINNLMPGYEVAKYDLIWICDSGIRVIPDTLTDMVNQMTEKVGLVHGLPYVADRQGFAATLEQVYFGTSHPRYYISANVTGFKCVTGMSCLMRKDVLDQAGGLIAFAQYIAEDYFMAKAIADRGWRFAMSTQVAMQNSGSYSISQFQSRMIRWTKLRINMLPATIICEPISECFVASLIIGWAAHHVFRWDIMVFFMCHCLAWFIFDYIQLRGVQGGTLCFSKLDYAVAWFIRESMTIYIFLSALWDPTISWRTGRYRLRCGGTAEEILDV
- Run Description: GCS enzyme inhibition assay (A549 cell lysate, NBD C6-ceramide, HPLC fluorescence)
- Measurement Setup: inhibitory activity against GCS, 37° C., 90 minutes
pIC50 field: float, defined as -log10 of concentration (mol/L).

// query pIC50 value for entry CCOc1ccc(-c2ccc3c(c2)OCCC3(C)NC(=O)O[C@@H]2CN3CCC2CC3)cc1 (stereo partly shown)
9.10

And for Cc1cc(-c2ccc3c(c2)OCC(C)(C)C3NC(=O)O[C@@H]2CN3CCC2CC3)cc(C)c1OC(C)C (stereo partly shown) ?
8.84

And what about the molecule CC1(C)COc2cc(/C=C/c3ccc(F)cc3)ccc2C1NC(=O)O[C@@H]1CN2CCC1CC2 (stereo partly shown) ?
8.91

Same for CC1(C)COc2cc(/C=C/c3cccc(F)c3)ccc2C1NC(=O)O[C@@H]1CN2CCC1CC2 (stereo partly shown)
9.21

Another molecule to look at: O=C(NC1CCOc2cc(-c3ccccc3C(F)(F)F)ccc21)O[C@@H]1CN2CCC1CC2 (stereo partly shown)
7.98

And the next one, CC1(C)COc2cc(-c3ccc(-c4ccccc4)cc3)ccc2C1NC(=O)O[C@@H]1CN2CCC1CC2 (stereo partly shown) ?
9.28

Thanks! And COc1cc2c(cc1-c1ccc(F)cc1)OCC(C)(C)C2NC(=O)O[C@@H]1CN2CCC1CC2 (stereo partly shown) ?
9.33

And CC1(C)COc2cc(-c3cc(Cl)cc(Cl)c3)ccc2C1NC(=O)O[C@@H]1CN2CCC1CC2 (stereo partly shown) ?
8.88

Also need Cc1ccc(-c2ccc3c(c2)OCCC3NC(=O)O[C@@H]2CN3CCC2CC3)cc1C#N (stereo partly shown) , thanks.
8.90

Subsequent entry: CN(C)c1cccc(-c2ccc3c(c2)OCC(C)(C)C3NC(=O)O[C@@H]2CN3CCC2CC3)c1 (stereo partly shown)
9.13

Another molecule: O=C(NC1CCOc2cc(-c3ccc(Cl)c(Cl)c3)ccc21)O[C@@H]1CN2CCC1CC2 (stereo partly shown)
8.28

What do you have for CC1(C)COc2cc(-c3cncc4ccccc34)ccc2C1NC(=O)O[C@@H]1CN2CCC1CC2 (stereo partly shown) [Example 155] ?
9.22

Next molecule: CCOc1ccc(-c2cc3c(cc2F)C(NC(=O)O[C@@H]2CN4CCC2CC4)C(C)(C)CO3)cc1 (stereo partly shown)
9.64

// query: C=Cc1ccc(-c2ccc3c(c2)OCC(C)(C)C3NC(=O)O[C@@H]2CN3CCC2CC3)cc1 (stereo partly shown)
9.05

For COc1ccc(-c2cc3c(cc2F)C(NC(=O)O[C@@H]2CN4CCC2CC4)C(C)(C)CO3)c(C)c1 (stereo partly shown) then?
9.35

Cool, now O=C(NC1CCOc2ccc(-c3ccccc3F)cc21)O[C@@H]1CN2CCC1CC2 (stereo partly shown)
8.45

----------
- Test system: GM1 production in Jurkat cells
- Run Description: cells
- Format: cell-based
- Measurement Setup: Homo sapiens, Jurkat, 72 h
Reported Metric: log10 IC50 (log10 of the value in nM)
In our notation, the value equals log10 of IC50 in nM.

# value lookup — system GM1 production in Jurkat cells, readout log10 IC50, item O=C(NC1CCOc2cc(-c3ccc(OCC4CC4)nc3)ccc21)O[C@@H]1CN2CCC1CC2 (stereo partly shown)
1.17

Also need CC1(C)COc2cc(-c3cccc(Cl)c3)c(F)cc2C1NC(=O)O[C@@H]1CN2CCC1CC2 (stereo partly shown) , thanks.
-0.05

// same read-out, input: COc1ccc(Cl)c(-c2cc3c(cc2OC)C(NC(=O)O[C@@H]2CN4CCC2CC4)C(C)(C)CO3)c1 (stereo partly shown)
0.38

Now the compound CCCCc1ccc(-c2ccc3c(c2)OCC(C)(C)C3NC(=O)O[C@@H]2CN3CCC2CC3)cc1 (stereo partly shown)
-0.70

Again, but for CC1(C)COc2cc(-c3ccc(C#N)cc3)ccc2C1NC(=O)O[C@@H]1CN2CCC1CC2 (stereo partly shown)
1.03

Also check COCCOc1cccc(-c2ccc3c(c2)OCCC3NC(=O)O[C@@H]2CN3CCC2CC3)c1 (stereo partly shown)
0.56

Now the same for O=C(NC1CCOc2ccc(-c3cccc(C(F)(F)F)c3)cc21)O[C@@H]1CN2CCC1CC2 (stereo partly shown)
2.69

Next up: CC1(C)COc2cc(-c3ccc4ncccc4c3)ccc2C1NC(=O)O[C@@H]1CN2CCC1CC2 (stereo partly shown)
0.95

// query: CCOc1ccc(-c2ccc3c(c2)OCC(C)(C)C3NC(=O)O[C@@H]2CN3CCC2CC3)cc1F (stereo partly shown)
0.65

Proceed to Cc1cccc(-c2ccc3c(c2)OCC(C)(C)C3NC(=O)O[C@@H]2CN3CCC2CC3)c1 (stereo partly shown)
0.15

Cool, now COc1ccc(-c2cc3c(cc2OC)C(NC(=O)O[C@@H]2CN4CCC2CC4)C(C)(C)CO3)c(C)c1 (stereo partly shown)
0.93

Field entry: CC1(C)COc2cc(-c3ccccc3F)ccc2C1NC(=O)O[C@@H]1CN2CCC1CC2 (stereo partly shown)
-0.57

Again, but for O=C(NC1CCOc2cc(-c3cccc4[nH]ncc34)ccc21)O[C@@H]1CN2CCC1CC2 (stereo partly shown)
1.62

Param item: CC1(C)COc2cc(-c3ccsc3)c(F)cc2C1NC(=O)O[C@@H]1CN2CCC1CC2 (stereo partly shown)
0.52

// repeat for CN(C)c1ccc(-c2ccc3c(c2)OCC(C)(C)C3NC(=O)O[C@@H]2CN3CCC2CC3)cn1 (stereo partly shown) and report
1.24

Entry CC1(C)COc2cc(-c3cccc(F)c3)ccc2C1NC(=O)O[C@@H]1CN2CCC1CC2 (stereo partly shown) please
0.45

Now try CC(C)COc1ccc(-c2ccc3c(c2)OCC(C)(C)C3NC(=O)O[C@@H]2CN3CCC2CC3)cc1 (stereo partly shown) .
-0.52

Could you do the same for COc1ccc(-c2ccc3c(c2)OCC(C)(C)C3NC(=O)O[C@@H]2CN3CCC2CC3)c(C)c1 (stereo partly shown) , please?
0.06

Proceed to O=C(NC1CCOc2cc(-c3ccc(C(F)(F)F)cc3)ccc21)O[C@@H]1CN2CCC1CC2 (stereo partly shown)
1.59

Try the compound COc1ccc(F)cc1-c1ccc2c(c1)OCC(C)(C)C2NC(=O)O[C@@H]1CN2CCC1CC2 (stereo partly shown)
0.15

# repeat for CC1(C)COc2cc(-c3ccc(Cl)c(Cl)c3)ccc2C1NC(=O)O[C@@H]1CN2CCC1CC2 (stereo partly shown)
0.14

Same read-out for Cc1ccc(-c2ccc3c(c2)OCC(C)(C)C3NC(=O)O[C@@H]2CN3CCC2CC3)c(Cl)c1 (stereo partly shown) ?
0.20

// next record COc1ccc2cc(-c3ccc4c(c3)OCC(C)(C)C4NC(=O)O[C@@H]3CN4CCC3CC4)ccc2c1 (stereo partly shown)
-1.10

Query O=C(NC1CCOc2cc(-c3cnn(Cc4ccccc4)c3)ccc21)O[C@@H]1CN2CCC1CC2 (stereo partly shown) next
1.11

CC1(C)COc2cc(-c3ccc(C(F)(F)F)cc3Cl)ccc2C1NC(=O)O[C@@H]1CN2CCC1CC2 (stereo partly shown) , same question.
-0.96

One more compound: N#Cc1ccccc1-c1ccc2c(c1)OCCC2NC(=O)O[C@@H]1CN2CCC1CC2 (stereo partly shown)
1.29

Also, Cc1ccc(-c2ccc3c(c2)OCCC3NC(=O)O[C@@H]2CN3CCC2CC3)cc1C#N (stereo partly shown) please.
1.44

Then this compound: CC1(C)COc2cc(-c3ccc4cc[nH]c4c3)ccc2C1NC(=O)O[C@@H]1CN2CCC1CC2 (stereo partly shown)
0.30

Input CC1(C)COc2cc(-c3ccsc3)ccc2C1NC(=O)O[C@@H]1CN2CCC1CC2 (stereo partly shown)
0.31

Do the same for CC1(C)COc2cc(-c3cccc(F)c3Cl)ccc2C1NC(=O)O[C@@H]1CN2CCC1CC2 (stereo partly shown) please
0.71

Thanks! And O=C(NC1CCOc2cc(-c3c[nH]c4ccccc34)ccc21)O[C@@H]1CN2CCC1CC2 (stereo partly shown) ?
1.31
